Tested on: Plasmodium falciparum
assay.notes: Antimalarial activity against chloroquine-sensitive Plasmodium falciparum 3D7 […] after 72 hrs by twofold serial dilution method
Assay type: functional, organism-based
test.conditions: Plasmodium falciparum, 3D7, Vero, 72 h; read-out: IC50
# log10 of IC50 listing for each entry below
Values below are the log10 of the recorded IC50, with µg/mL as the unit.

- smiles.structure: "CN1CCN(c2nc(NCCCNc3ccnc4cc(Cl)ccc34)nc(N3CCCCC3)n2)CC1"
  log10 of IC50: -2.04
- smiles.structure: "O=C(NCCN1CCOCC1)C(=O)N1CCN(CCNc2ccnc3cc(Cl)ccc23)CC1"
  log10 of IC50: -0.58
- smiles.structure: "CCN(CC)CCNC(=O)C(=O)N1CCN(CCNc2ccnc3cc(Cl)ccc23)CC1"
  log10 of IC50: -1.10
- smiles.structure: "Clc1ccc2c(NCCNc3nc(NCCN4CCOCC4)nc(N4CCOCC4)n3)ccnc2c1"
  log10 of IC50: -1.32
- smiles.structure: "CN(C)CCNC(=O)C(=O)NCCCNc1ccnc2cc(Cl)ccc12"
  log10 of IC50: -1.58
- smiles.structure: "Clc1ccc2c(NCCCNc3nc(NCCN4CCOCC4)nc(N4CCOCC4)n3)ccnc2c1"
  log10 of IC50: -1.75
- smiles.structure: "CCN(CC)CCNC(=O)C(=O)NCCCNc1ccnc2cc(Cl)ccc12"
  log10 of IC50: -1.81
- smiles.structure: "CCN(CC)CCNc1nc(NCCNc2ccnc3cc(Cl)ccc23)nc(N2CCCCC2)n1"
  log10 of IC50: -1.83

Fill in the blank: the reported log10 of IC50 of CN(C)CCNc1nc(NCCNc2ccnc3cc(Cl)ccc23)nc(N2CCCCC2)n1 is ____.
-1.80

Fill in the blank: the reported log10 of IC50 of O=C(NCCCNc1ccnc2cc(Cl)ccc12)C(=O)NCCN1CCOCC1 is ____.
-1.09

Fill in the blank: the reported log10 of IC50 of CN1CCN(c2nc(NCCNc3ccnc4cc(Cl)ccc34)nc(N3CCOCC3)n2)CC1 is ____.
-2.00

Fill in the blank: the reported log10 of IC50 of CCN(CC)CCNC(=O)C(=O)N1CCN(c2ccnc3cc(Cl)ccc23)CC1 is ____.
-1.38

Fill in the blank: the reported log10 of IC50 of CCCCNC(=O)C(=O)NCCCNc1ccnc2cc(Cl)ccc12 is ____.
-0.63

Fill in the blank: the reported log10 of IC50 of CN(C)CCNC(=O)C(=O)NCCNc1ccnc2cc(Cl)ccc12 is ____.
-1.50

Fill in the blank: the reported log10 of IC50 of CN(C)CCNc1nc(NCCNc2ccnc3cc(Cl)ccc23)nc(N2CCOCC2)n1 is ____.
-1.40

----------
System: Plasmodium falciparum
assay.notes: Antimalarial activity against chloroquine-sensitive Plasmodium falciparum 3D7 […] after 72 hrs by twofold serial dilution method
Format: functional, organism-based
test.conditions: Plasmodium falciparum, 3D7, Vero, 72 h; read-out: IC50
Threshold 0.02 mg/L. IC50 below it: yes (1). IC50 at it or above: no (0).

These recorded examples may help you get a feel for the data.
- smiles.structure: "Clc1ccc2c(NCCCNc3nc(NCCCN4CCOCC4)nc(N4CCCCC4)n3)ccnc2c1"
  class.label: "yes (1)"
- smiles.structure: "CCN(CC)CCNc1nc(NCCCNc2ccnc3cc(Cl)ccc23)nc(N2CCCCC2)n1"
  class.label: "yes (1)"
- smiles.structure: "CCN(CC)CCNC(=O)C(=O)NCCNc1ccnc2cc(Cl)ccc12"
  class.label: "no (0)"
- smiles.structure: "CCN(CC)CCNc1nc(NCCNc2ccnc3cc(Cl)ccc23)nc(N2CCOCC2)n1"
  class.label: "no (0)"
- smiles.structure: "CN(C)CCNC(=O)C(=O)N1CCN(CCNc2ccnc3cc(Cl)ccc23)CC1"
  class.label: "no (0)"
- smiles.structure: "Clc1ccc2c(NCCNc3nc(NCCCN4CCOCC4)nc(N4CCCCC4)n3)ccnc2c1"
  class.label: "no (0)"
- smiles.structure: "CN1CCN(c2nc(NCCCNc3ccnc4cc(Cl)ccc34)nc(N3CCOCC3)n2)CC1"
  class.label: "no (0)"
- smiles.structure: "CN1CCN(c2nc(NCCNc3ccnc4cc(Cl)ccc34)nc(N3CCCCC3)n2)CC1"
  class.label: "yes (1)"

IC50 under 0.02 mg/L? Item: Clc1ccc2c(NCCNc3nc(NCCCN4CCOCC4)nc(N4CCOCC4)n3)ccnc2c1
no (0)

IC50 under 0.02 mg/L? Item: CN(C)CCNc1nc(NCCCNc2ccnc3cc(Cl)ccc23)nc(N2CCOCC2)n1
no (0)

IC50 under 0.02 mg/L? Item: CCN(CC)CCNc1nc(NCCCNc2ccnc3cc(Cl)ccc23)nc(N2CCOCC2)n1
no (0)

IC50 under 0.02 mg/L? Item: CN(C)CCNc1nc(NCCCNc2ccnc3cc(Cl)ccc23)nc(N2CCCCC2)n1
yes (1)
